src = paper PMC5980108

# testSystem: T1, dTIS11-6His (UniProt P47980 1-436)
# T1 sequence: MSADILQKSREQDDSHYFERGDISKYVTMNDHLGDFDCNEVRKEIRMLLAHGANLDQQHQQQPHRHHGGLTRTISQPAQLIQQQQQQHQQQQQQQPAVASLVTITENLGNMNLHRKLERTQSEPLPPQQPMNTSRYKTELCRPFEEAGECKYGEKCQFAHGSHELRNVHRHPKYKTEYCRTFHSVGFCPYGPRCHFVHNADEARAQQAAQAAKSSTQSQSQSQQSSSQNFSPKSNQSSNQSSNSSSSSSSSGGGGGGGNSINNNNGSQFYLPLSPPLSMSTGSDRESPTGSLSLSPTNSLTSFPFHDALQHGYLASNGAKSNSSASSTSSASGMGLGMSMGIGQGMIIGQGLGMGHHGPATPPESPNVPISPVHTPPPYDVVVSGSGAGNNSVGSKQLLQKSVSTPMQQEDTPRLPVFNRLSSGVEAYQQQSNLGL
# testProtocol: ITC; 5 uM ZnCl2; ITC: 20 mM MES pH 6.5, 300 mM NaCl, 5 uM ZnCl2, 0.5 mM DTT, 10 C; EMSA: 20 mM Tris pH 7.8, 3 mM MgCl2, 40 mM KCl, 2 mM DTT, 5% glycerol, gel at 4 C
# measurementParameters: protein: recombinant; tags: C-terminal 6His
For each entry below, report its Kd value.
One number for each entry, in nM.

- binder: "GAUUAUUUAUAAUUAUUUAUUUAAAGAUCUAUUUAUUC (ssRNA) [CecA1 ARE]"
  assayMetric: "Kd"
  testValue: 580
- binder: "UGUUUAUUUUUAGUCCACCUCUCAAUUUAUUUAUUAUUUUUAUGA (ssRNA) [ImpL3 ARE (ITC)]"
  assayMetric: "Kd"
  testValue: 2400

Could you now look at the following binder, please?
Query string: Report Kd for CGAUUUAUUUAUUUAGA (ssRNA) [TNF ARE] please.
Result string: 895
